- Test system: Escherichia coli
- METHOD SUMMARY: Antibacterial activity against Escherichia coli after 18 hrs by microdilution assay
- Assay type: functional
READOUT TYPE: MIC

Solved cases (3 shown):
| SMILES DATA | READOUT TYPE | ASSAY RESULT |
| --- | --- | --- |
| CC(C)[C@@H]1COc2c(NCCNc3ccccn3)c(F)c(N)c3c(=O)c(C(=O)O)cn1c23 | MIC | > 2 µM |
| COc1c(NCCNc2ccccn2)c(F)c(N)c2c(=O)c(C(=O)O)cn(C3CCCC3)c12 | MIC | > 28 µM |
| Nc1c(F)c(NCCNc2ccccn2)cc2c1c(=O)c(C(=O)O)cn2C1CC1 | MIC | 0.8 µM |

# ---- query compound ----
Kindly indicate its recorded MIC. Item: CC1(C)COc2c(NCCNc3ccccn3)c(F)c(N)c3c(=O)c(C(=O)O)cn1c23
59 µM

###

- TARGET ENTITY: Glycogen synthase kinase-3 beta (Homo sapiens, UniProt P49841)
- Sequence (P49841 whole entry): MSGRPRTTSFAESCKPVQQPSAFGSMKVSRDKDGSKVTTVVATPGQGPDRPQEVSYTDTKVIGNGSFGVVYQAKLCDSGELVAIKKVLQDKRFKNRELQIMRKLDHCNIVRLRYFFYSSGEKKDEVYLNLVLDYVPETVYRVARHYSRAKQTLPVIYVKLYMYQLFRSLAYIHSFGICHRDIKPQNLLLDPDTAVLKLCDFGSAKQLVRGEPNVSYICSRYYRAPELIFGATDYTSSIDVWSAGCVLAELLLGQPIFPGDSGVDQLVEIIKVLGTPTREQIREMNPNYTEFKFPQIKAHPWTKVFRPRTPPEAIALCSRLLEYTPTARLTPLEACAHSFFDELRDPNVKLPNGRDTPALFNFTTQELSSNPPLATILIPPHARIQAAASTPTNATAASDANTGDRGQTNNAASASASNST
- METHOD SUMMARY: Inhibition of human recombinant full length GSK3-beta after 1 hrs by luminescence assay
pIC50: −log10 of the molar value.
# if value of pIC50 reaches 7, tag YES; if it stays below, tag NO

Recorded results for 5 compounds are shown here.
| SMILES DATA | CLASS |
| --- | --- |
| Nc1c(F)c(NCCCCc2ccccc2)c(F)c2c1c(=O)c(C(=O)O)cn2C1CC1 | NO |
| COc1c(NCCNc2ccccn2)c(F)c(N)c2c(=O)c(C(=O)O)cn(C3CCCC3)c12 | NO |
| COc1c(NCCNc2cccc3ccccc23)c(F)cc2c(=O)c(C(=O)O)cn(C3CC3)c12 | NO |
| Nc1c(F)c(NCCNc2ccccn2)cc2c1c(=O)c(C(=O)O)cn2C1CC1 | YES |
| Nc1c(F)c(NCCNc2ccccn2)c2c3c1c(=O)c(C(=O)O)cn3C1(CCC1)CO2 | YES |

Determine whether measured pIC50 meets or exceeds 7 for Nc1c(F)c(NCCCc2ccccc2)c(F)c2c1c(=O)c(C(=O)O)cn2C1CC1
YES

Record CC1(C)COc2c(NCCNc3ccccn3)c(F)c(N)c3c(=O)c(C(=O)O)cn1c23 ; criterion: pIC50 no lower than 7. Met?
YES

Could you tell me if the measured pIC50 of CC(C)Nc1c(F)c(N)c2c(=O)c(C(=O)O)cn(C3CC3)c2c1F reaches 7 or more?
NO

###

The entries below are paired with their reported pIC50.
- TARGET ENTITY: UniProt:P49841
- METHOD SUMMARY: Inhibition of human recombinant full length GSK3-beta after 1 hrs by luminescence assay
# log scale: pIC50 equals minus log10 of the concentration in mol/L

For the compound CC(C)OCCCNc1c(F)c(N)c2c(=O)c(C(=O)O)cn(C3CC3)c2c1F , give its reported pIC50.
6.96

###

- TARGET ENTITY: UniProt P49841
- METHOD SUMMARY: Inhibition of human recombinant full length GSK3-beta after 1 hrs by luminescence assay
pIC50: −log10 of the molar value.
Tick True if pIC50 is 7 or greater. Tick False if pIC50 is less than 7.

Consider the worked cases shown below.
| SMILES DATA | CLASS |
| --- | --- |
| Nc1c(F)c(NCCNc2cccc3ccccc23)c(F)c2c1c(=O)c(C(=O)O)cn2C1CC1 | True |
| Nc1ccc(CCNc2c(F)c(N)c3c(=O)c(C(=O)O)cn(C4CC4)c3c2F)cc1 | False |

Okay, next one:
Does the compound Nc1c(F)c(NCCN2CCOCC2)c(F)c2c1c(=O)c(C(=O)O)cn2C1CC1 have recorded pIC50 that is 7 or more?
False

Data credit: ChEMBL document CHEMBL1833925
